# testDetails: Toxicity liver stage against HepG2, at 10uM
# Assay type: cell-based
# Design: test concentration 10 uM, cell line HepG2-A16-CD81EGFP
# conditionDetails: human, HepG2-A16-CD81EGFP cells; read-out: INHIBITION
compounds and their reported cytotoxicity at 10 µM
Use % as the unit, but write only the number.

Reference set (10 entries):
{"columns": ["compound", "quantityUnit", "cytotoxicity at 10 µM"],
 "data": [
  ["Cc1cc(S(C)(=O)=O)c(C)c(S(=O)(=O)N2CCN(C)CC2)c1", "%", 11.7],
  ["COCCN(C)CCN1CC2(CCN(C3CCNCC3)CC2)OC1=O", "%", 1.64],
  ["CC(C)(C)c1nnc(NCc2ccc(F)cc2)o1", "%", 6.88],
  ["Cc1nc(CN(C)Cc2nc(-c3sccc3C)oc2C)no1", "%", -0.205],
  ["Cc1cccc(N2CCN(C(=O)CCCC(=O)N(C)C)C(C)C2)n1 (stereo not given)", "%", 14.6],
  ["CC(C)c1cc(N2CCCC3(CCN(C)C3)C2)ncn1 (stereo not given)", "%", -7.36],
  ["CCOc1ncccc1CNCc1c(C(C)C)nn(C)c1N(C)C", "%", -8.19],
  ["CC(Cc1cccs1)NC(=O)CCn1cccn1 (stereo not given)", "%", -14.7],
  ["CC(=O)c1c(C)nn(S(=O)(=O)c2ccc(Cl)cc2)c1C", "%", -6.74],
  ["Cn1cc(C(=O)N2CCCC(c3ncc[nH]3)C2)cn1 (stereo not given)", "%", 1.95]
]}

## Input # lookup: cytotoxicity at 10 µM of CCn1c2c(ccc1=O)CC(N)CC2 (stereo not given)
## Output -1.72

## Input // next record COCC1CCN(c2ccnc3ccsc23)C1 (stereo not given)
## Output 6.24

## Input What about COc1ccc(C)cc1C(C)NC(=O)Cn1ccc(=O)n(C)c1=O (stereo not given) ?
## Output -1.59

## Input Cool, now COc1ccc(C2CC(=O)Nc3c2cnn3C2CCCC2)cc1 (stereo not given)
## Output -9.41

## Input Follow-up entry: Cc1cncc(C(=O)N2C[C@H]3CCC[C@@]3(COc3ccccn3)C2)c1
## Output 1.08

## Input What would you report for O=C(O)c1cccc(C2CCCN(S(=O)(=O)C3CC3)C2)c1 (stereo not given) ?
## Output 3.24

## Input Okay, and CC(C)[C@H](N)C(=O)N1CCSc2ccccc2C1 ?
## Output -5.53

## Input Try this compound next: CCc1nc(CN(C)C2CCN(CCc3cccs3)C2)no1 (stereo not given)
## Output -8.7

## Input Now the compound Cc1cc(-c2ccc(C(C)N3CCCCC3)cc2)cnc1N (stereo not given)
## Output -3.44

## Input Entry to check: CNC(=O)NC(=O)CCN1CCN(c2ccc(C(=O)OC)cc2)CC1C (stereo not given)
## Output -17.8

## Input Next entry: CC(C)c1nc(CN(C)C(=O)c2ccccc2C2CCNC2)cs1 (stereo not given)
## Output 4.46

## Input Do the same for Cc1ccc(Sc2ccc(N3CCCC(C(=O)O)C3)nn2)cc1 (stereo not given) please
## Output -8.71

----------
# testDetails: Toxicity liver stage against HepG2, at 10uM
# Assay type: cell-based
# Set-up: test concentration 10 uM, cell line HepG2-A16-CD81EGFP
# conditionDetails: human, HepG2-A16-CD81EGFP cells; read-out: INHIBITION
recordedMetric: cytotoxicity at 10 µM (%)
Note: unit % is implicit; provide only the numeric part.

Some solved entries appear below for comparison.
{"columns": ["molecule", "cytotoxicity at 10 µM / %"],
 "data": [
  ["Cc1ccc(Oc2ncccc2CNC(=O)C2COC(=O)N2)c(F)c1F (centres undefined)", 1.82],
  ["CC(C)N(C)C(=O)C1=NOC2(CCN(C(=O)c3cccn3C)C2)C1 (centres undefined)", -122],
  ["Cc1ccc(S(=O)(=O)N(CCO)C2CC2)cc1N(C)C", -8.91],
  ["O=C(Nc1cnccn1)[C@H]1COC[C@H]2CN(C3CCCC3)C[C@H]21", -20.4],
  ["NC(=O)C1CCN(c2ccc3cc(Br)ccc3n2)C1 (centres undefined)", 7.87]
]}

## Input Return reported cytotoxicity at 10 µM; argument: CCOc1cc(CNC(=O)N2CCC(Cc3cnn(C)c3)C2)ccn1 (centres undefined)
## Output -8.29

## Input Can you handle CCC1CCN(CCn2cnc3c(C)csc3c2=O)CC1 next?
## Output -6.94

## Input Quick one: Cc1cc(F)ccc1OC1(C(=O)O)CCN(Cc2cccnc2)CC1
## Output 1.87

## Input How about this molecule: CNS(=O)(=O)c1cccc(CNC(=O)c2c(C)nn(C)c2C)c1
## Output 9.26

## Input Queued: COc1c(CNC2CCCOc3ccccc32)c(C)nn1C (centres undefined)
## Output 1.86

## Input Thanks! And Cc1ccccc1CN(C)C(=O)c1ccoc1 ?
## Output 2.2
